molecular target: TR-β (Homo sapiens); experiment: In vitro TR-β activity (in-house protocol); assay type: cell-based; settings: Conc. 10 nM; read-out: TR-β Fold Induction w.r.t T3(100 nm)
Sequence (P10828 whole entry): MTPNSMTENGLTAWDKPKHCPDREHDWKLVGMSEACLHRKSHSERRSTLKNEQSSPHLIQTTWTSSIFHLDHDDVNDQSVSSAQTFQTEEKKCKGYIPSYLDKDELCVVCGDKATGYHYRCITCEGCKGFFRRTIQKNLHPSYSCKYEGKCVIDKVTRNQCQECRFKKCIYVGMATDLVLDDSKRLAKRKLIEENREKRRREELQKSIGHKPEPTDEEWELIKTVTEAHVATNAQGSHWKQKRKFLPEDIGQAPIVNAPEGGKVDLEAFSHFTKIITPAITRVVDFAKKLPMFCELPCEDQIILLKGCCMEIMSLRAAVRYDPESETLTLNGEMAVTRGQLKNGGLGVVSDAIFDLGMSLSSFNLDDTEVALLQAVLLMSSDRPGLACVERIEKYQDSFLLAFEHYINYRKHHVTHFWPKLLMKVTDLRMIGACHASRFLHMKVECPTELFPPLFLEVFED
assayReadout: fold induction at 0.01 µM

A. O=C(O)CON=Cc1cc(Br)c(Oc2ccc(O)c(C(=O)c3ccc(Cl)cc3)c2)c(Br)c1
B. CC(C)c1cc(Oc2c(Br)cc(C=NOC(C)(C)C(=O)O)cc2Br)ccc1O
C. CC(ON=Cc1cc(Br)c(Oc2ccc(O)c(C(O)c3ccc(Cl)cc3)c2)c(Br)c1)C(=O)O (stereo not shown)
D. CC(ON=Cc1cc(Br)c(Oc2ccc(O)c(S(=O)(=O)N[C@@H]3C[C@H]4CC[C@@H]3C4)c2)c(Br)c1)C(=O)O (stereo partly shown)
Query: Hello, I need these entries ordered by fold induction at 0.01 µM, highest reading first. Thanks! Answer by listing the labels in the order asked for.
Result: B, A, C, D
